Reference source: paper PMC10793102

measurementNotes: PK study in mice
Format: in vivo
conditionDescription: male, ICR, mouse, plasma, po, 5 mg/kg
endpointName: bioavailability (%)
# output: bare number, implied unit %

Lookup result for C[C@@H](c1ccc(-n2cnc3c(N)ncnc32)cc1)N1CCc2nn(C)c(Cc3ccccc3)c2C1=O [compound 62] ; measured bioavailability: 82.2

* * *

Tested on: FADD−/− Jurkat
measurementNotes: Cell viability assay, protection from necroptosis in FADD−/− Jurkat cells
Type: cell-based
conditionDescription: Homo sapiens, 16 h, read-out: EC50 FADD−/− Jurkat TNFα
pEC50: −log10 of the molar value.
Assign class by pEC50: not lower than 8 means T; lower than 8 means F.

These solved cases illustrate the format of a correct answer.
Cn1nc(C(=O)NCc2ccc(-n3ccc4c(N)nccc43)cc2)cc1Cc1ccccc1 [compound 46] : F
CNC(=O)c1ccc2c(c1)ncn2-c1ccc(CC(=O)N(O)Cc2ccccc2)cc1 [compound 14] : F
C[C@@H](c1ccc(-n2cnc3c(N)ncnc32)cc1)N1CCc2nn(C)c(Cc3ccccc3)c2C1=O [compound 62] : T
CNC(=O)c1ccc2c(c1)ncn2-c1ccc(CNC(=O)c2nnn(Cc3ccccc3)n2)cc1 [compound 25] : F
COc1cc2ncnc(-c3ccc(CNC(=O)c4cnn(C)c4Cc4ccccc4)cc3)c2cc1OC [compound 37] : F
CNC(=O)c1ccc2c(c1)ncn2-c1ccc(CNC(=O)c2nnc(Cc3ccccc3)o2)cc1 [compound 17] : F

Moving on to the next compound.
Test whether the compound C[C@@H](c1ccc(-n2cnc3c(N)ncnc32)cc1)N1Cc2nn(C)c(Cc3ccccc3)c2C1=O [compound 63] records pEC50 of 8 or higher.
T
